# system.name: HDAC4 (Homo sapiens, UniProt P56524)
# Sequence (P56524 whole entry): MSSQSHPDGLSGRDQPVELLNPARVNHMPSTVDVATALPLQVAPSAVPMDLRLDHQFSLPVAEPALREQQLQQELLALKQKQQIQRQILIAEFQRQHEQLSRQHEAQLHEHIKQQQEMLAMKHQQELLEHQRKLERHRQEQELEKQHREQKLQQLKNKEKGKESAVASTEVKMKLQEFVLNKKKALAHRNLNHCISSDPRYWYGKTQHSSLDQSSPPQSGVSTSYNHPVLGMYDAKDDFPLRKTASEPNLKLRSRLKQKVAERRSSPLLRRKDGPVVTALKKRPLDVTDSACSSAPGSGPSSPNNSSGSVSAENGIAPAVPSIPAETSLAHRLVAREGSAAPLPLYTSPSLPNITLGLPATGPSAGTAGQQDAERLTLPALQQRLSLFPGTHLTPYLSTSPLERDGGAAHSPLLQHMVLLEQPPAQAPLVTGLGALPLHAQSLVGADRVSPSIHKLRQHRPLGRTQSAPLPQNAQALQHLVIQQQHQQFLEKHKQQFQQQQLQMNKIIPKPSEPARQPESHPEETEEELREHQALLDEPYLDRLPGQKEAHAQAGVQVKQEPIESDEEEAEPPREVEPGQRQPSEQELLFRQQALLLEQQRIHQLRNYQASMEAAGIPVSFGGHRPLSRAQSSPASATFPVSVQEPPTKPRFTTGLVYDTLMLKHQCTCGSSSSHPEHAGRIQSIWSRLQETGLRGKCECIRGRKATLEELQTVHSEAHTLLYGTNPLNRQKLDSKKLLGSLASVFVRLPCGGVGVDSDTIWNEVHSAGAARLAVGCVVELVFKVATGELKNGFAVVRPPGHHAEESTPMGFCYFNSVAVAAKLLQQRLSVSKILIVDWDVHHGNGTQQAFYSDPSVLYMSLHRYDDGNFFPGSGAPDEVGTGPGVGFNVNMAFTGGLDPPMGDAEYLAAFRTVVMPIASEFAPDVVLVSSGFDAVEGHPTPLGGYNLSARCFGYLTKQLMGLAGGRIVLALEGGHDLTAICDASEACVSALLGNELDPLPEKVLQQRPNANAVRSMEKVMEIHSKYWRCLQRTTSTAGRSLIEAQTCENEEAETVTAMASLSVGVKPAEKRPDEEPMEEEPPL
# experimental.protocol: Biochemical assay for HDAC inhibition, HDAC4
# experimental.parameters: read-out: IC50 HDAC4; Table 1, purified enzyme; unit inferred
parameter: IC50 (µM)
# output: bare number, implied unit µM

Exercise: Return IC50 (reported value) for this molecule: CCC(CC)(c1ccc(C(=O)NCCCCC(=O)NO)cc1)c1ccc(OCC(O)C(C)(C)C)c(C)n1 (stereo not shown)
Key: 67.6

---

# system.name: UniProt P56524
# experimental.protocol: Biochemical assay for HDAC inhibition, HDAC4
# experimental.parameters: read-out: IC50 HDAC4
parameter: IC50 (µM)
I only need the number, in µM, no unit after it.

Exercise: Retrieve IC50 measured for CCC(CC)(c1ccc(C(=O)NCCCCC(=O)NO)cc1)c1ccc(OCC(O)C(C)(C)C)c(C)n1 (stereo not shown) and print it.
Key: 68
